The origin of these recorded values is PubChem BioAssay AID1745844.

# Tested on: rodent lifetime carcinogenesis bioassay, tumor incidence TD50
# Experiment Summary: carcinogenic potency in animals, long-term in vivo studies, CPDB compilation (AID 1745844)
# Condition Set: mouse; strain B6C3F1; females; inhaled; site: any site (literature study); lesion: malignant tumor; dosed 78 weeks; study length 154 weeks
Reported Metric: TD50 (mg/kg/day)
Note: unit mg/kg/day is implicit; provide only the numeric part.

Input ClC=C(Cl)Cl . Output TD50: 2080

###

# Test system: rodent lifetime carcinogenesis bioassay, tumor incidence TD50
# Experiment Summary: carcinogenic potency in animals, long-term in vivo studies, CPDB compilation (AID 1745844)
# Condition Set: rat; strain BD VI; females; by gavage; site: thyroid gland; lesion: adenoma; dosed 104 weeks; study length 114 weeks
The source made the active and inactive calls. How the calls were made is not given here.
Reported Metric: TD50

Input CC1(C)[C@H](C(=O)O[C@H](C#N)c2cccc(Oc3ccccc3)c2)[C@@H]1C=C(Br)Br . Output TD50: 16.9 mg/kg/day (inactive)

###

# Tested on: rodent lifetime carcinogenesis bioassay, tumor incidence TD50
# Experiment Summary: carcinogenic potency in animals, long-term in vivo studies, CPDB compilation (AID 1745844)
# Condition Set: mouse; strain Charles River CD1; females; in feed; site: liver; lesion: hepatocellular carcinoma; dosed 51 weeks; study length 73 weeks
Reported Metric: TD50

Input C=CC(O)c1ccc2c(c1)OCO2 (stereo unspecified) . Output TD50: 68 mg/kg/day

###

# Tested on: rodent lifetime carcinogenesis bioassay, tumor incidence TD50
# Experiment Summary: carcinogenic potency in animals, long-term in vivo studies, CPDB compilation (AID 1745844)
# Condition Set: rat; strain Sprague-Dawley; males; inhaled; site: Zymbal's gland; lesion: carcinoma; dosed 25 weeks; study length 139 weeks
Reported Metric: TD50

Input C=CCl . Output TD50: 226 mg/kg/day

###

# Tested on: rodent lifetime carcinogenesis bioassay, tumor incidence TD50
# Experiment Summary: carcinogenic potency in animals, long-term in vivo studies, CPDB compilation (AID 1745844)
# Condition Set: mouse; strain B6C3F1; females; in drinking water; site: lung; lesion: alveolar/bronchiolar adenoma; dosed 103 weeks; study length 104 weeks
Reported Metric: TD50 (mg/kg/day)
Note: unit mg/kg/day is implicit; provide only the numeric part.

Input Nc1ccc(Cc2ccc(N)cc2)cc1 . Output TD50: 327

###

# Tested on: rodent lifetime carcinogenesis bioassay, tumor incidence TD50
# Experiment Summary: carcinogenic potency in animals, long-term in vivo studies, CPDB compilation (AID 1745844)
# Condition Set: mouse; strain ICR/Jcl; males; in drinking water; site: lung; lesion: adenocarcinoma; dosed 104 weeks; study length 104 weeks
Active and inactive are the calls of the source. No rule for the calls is given here.
Reported Metric: TD50

Input O=S(O)O . Output TD50: 84800 mg/kg/day (inactive)

###

# System: rodent lifetime carcinogenesis bioassay, tumor incidence TD50
# Experiment Summary: carcinogenic potency in animals, long-term in vivo studies, CPDB compilation (AID 1745844)
# Condition Set: mouse; strain B6C3F1; males; oral dosing; site: lung; lesion: adenoma; dosed 70 weeks; study length 70 weeks
Reported Metric: TD50 (mg/kg/day)
Note: unit mg/kg/day is implicit; provide only the numeric part.

Input CCOC(N)=O . Output TD50: 81.7

###

# System: rodent lifetime carcinogenesis bioassay, tumor incidence TD50
# Experiment Summary: carcinogenic potency in animals, long-term in vivo studies, CPDB compilation (AID 1745844)
# Condition Set: mouse; strain Swiss albino; males; in drinking water; site: lung; lesion: adenocarcinoma; dosed 93 weeks; study length 93 weeks
Reported Metric: TD50 (mg/kg/day)
Note: unit mg/kg/day is implicit; provide only the numeric part.

The reported TD50 value, rodent lifetime carcinogenesis bioassay, tumor incidence TD50, for C=CCN(N)CC=C reads 38.9

###

# Tested on: rodent lifetime carcinogenesis bioassay, tumor incidence TD50
# Experiment Summary: carcinogenic potency in animals, long-term in vivo studies, CPDB compilation (AID 1745844)
# Condition Set: rat; strain Fischer 344; males; in drinking water; site: cecum + colon + large intestine + rectum; lesion: adenomatous polyp + adenocarcinoma + mucinous cystadenocarcinoma; dosed 58 weeks; study length 60 weeks
Reported Metric: TD50

Input Cc1cc(-c2ccc(N)c(C)c2)ccc1N . Output TD50: 3.76 mg/kg/day

###

# Tested on: rodent lifetime carcinogenesis bioassay, tumor incidence TD50
# Experiment Summary: carcinogenic potency in animals, long-term in vivo studies, CPDB compilation (AID 1745844)
# Condition Set: rat; strain Sprague-Dawley; females; in feed; site: forestomach; lesion: squamous-cell papilloma; dosed 40 weeks; study length 59 weeks
Reported Metric: TD50 (mg/kg/day)
Note: unit mg/kg/day is implicit; provide only the numeric part.

Input CC(=O)Nc1nnc(-c2ccc([N+](=O)[O-])o2)s1 . Output TD50: 11.6

###

# Test system: rodent lifetime carcinogenesis bioassay, tumor incidence TD50
# Experiment Summary: carcinogenic potency in animals, long-term in vivo studies, CPDB compilation (AID 1745844)
# Condition Set: rat; strain Not specified; males; in feed; site: bile duct; lesion: adenoma; dosed 65 weeks; study length 65 weeks
Reported Metric: TD50 (mg/kg/day)
Note: unit mg/kg/day is implicit; provide only the numeric part.

Input Cc1cc(C)c(N=Nc2c(O)c(S(=O)(=O)O)cc3cc(S(=O)(=O)O)ccc23)cc1C . Output TD50: 755

###

# Test system: rodent lifetime carcinogenesis bioassay, tumor incidence TD50
# Experiment Summary: carcinogenic potency in animals, long-term in vivo studies, CPDB compilation (AID 1745844)
# Condition Set: rat; strain Fischer 344; males; by gavage; site: liver; lesion: hepatocellular adenoma + hepatoblastoma + hepatocellular carcinoma; dosed 103 weeks; study length 104 weeks
Reported Metric: TD50 (mg/kg/day)
Note: unit mg/kg/day is implicit; provide only the numeric part.

Input O=C1CCc2ccccc2O1 . Output TD50: 1380

###

# System: rodent lifetime carcinogenesis bioassay, tumor incidence TD50
# Experiment Summary: carcinogenic potency in animals, long-term in vivo studies, CPDB compilation (AID 1745844)
# Condition Set: rat; strain Wistar; males; in feed; site: urinary bladder; lesion: several types; types named in the paper; dosed 75 weeks; study length 75 weeks
Reported Metric: TD50

Input COc1cc2c(cc1N)oc1ccccc12 . Output TD50: 35.2 mg/kg/day

###

# Tested on: rodent lifetime carcinogenesis bioassay, tumor incidence TD50
# Experiment Summary: carcinogenic potency in animals, long-term in vivo studies, CPDB compilation (AID 1745844)
# Condition Set: rat; strain Sprague-Dawley Spartan; females; inhaled; site: mammary gland; lesion: fibroadenoma; dosed 52 weeks; study length 104 weeks
Reported Metric: TD50 (mg/kg/day)
Note: unit mg/kg/day is implicit; provide only the numeric part.

Input ClCCl . Output TD50: 37.7

###

# Test system: rodent lifetime carcinogenesis bioassay, tumor incidence TD50
# Experiment Summary: carcinogenic potency in animals, long-term in vivo studies, CPDB compilation (AID 1745844)
# Condition Set: rat; strain Sprague-Dawley; females; in feed; site: mammary gland; lesion: several types; types named in the paper; dosed 40 weeks; study length 59 weeks
Reported Metric: TD50

Input CC(=O)Nc1nnc(-c2ccc([N+](=O)[O-])o2)s1 . Output TD50: 43.3 mg/kg/day

###

# System: rodent lifetime carcinogenesis bioassay, tumor incidence TD50
# Experiment Summary: carcinogenic potency in animals, long-term in vivo studies, CPDB compilation (AID 1745844)
# Condition Set: rat; strain Fischer 344; females; inhaled; site: liver; lesion: hepatocellular carcinoma; dosed 26 weeks; study length 104 weeks
Reported Metric: TD50 (mg/kg/day)
Note: unit mg/kg/day is implicit; provide only the numeric part.

Input C=CCl . Output TD50: 103

###

# Tested on: rodent lifetime carcinogenesis bioassay, tumor incidence TD50
# Experiment Summary: carcinogenic potency in animals, long-term in vivo studies, CPDB compilation (AID 1745844)
# Condition Set: mouse; strain B6C3F1; males; in feed; site: liver; lesion: hepatocellular adenoma + hepatocellular carcinoma + neoplastic nodule; dosed 104 weeks; study length 105 weeks
Reported Metric: TD50 (mg/kg/day)
Note: unit mg/kg/day is implicit; provide only the numeric part.

The examples below pair each entry with its known result.
O=[N+]([O-])c1cc(N(CCO)CCO)ccc1NCCO :: 6550
O=Nc1ccc(NO)cc1 :: 1.23e+06
CN(C)NC(=O)CCC(=O)O :: 2450

Attention now turns to another entry.
Input Nc1ccc(N)c2c1C(=O)c1c(N)ccc(N)c1C2=O . Output TD50: 534

###

# Tested on: rodent lifetime carcinogenesis bioassay, tumor incidence TD50
# Experiment Summary: carcinogenic potency in animals, long-term in vivo studies, CPDB compilation (AID 1745844)
# Condition Set: mouse; strain B6C3F1; males; in feed; site: liver; lesion: hepatocellular carcinoma; dosed 78 weeks; study length 78 weeks
Activity calls are given as the source filed them. No rule for the calls is given here.
// one of 1 = active, 0 = inactive, no free text

O=C(O)c1cc(Oc2ccc(C(F)(F)F)cc2Cl)ccc1[N+](=O)[O-] :: 1
COC(=O)C1=C(C)NC(C)=C(C(=O)OCCc2ccc(N3CCN(C(c4ccccc4)c4ccccc4)CC3)cc2)C1c1cccc([N+](=O)[O-])c1 (stereo not given) :: 0

Prompt line: Entry Brc1cc(Br)c(-c2c(Br)c(Br)c(Br)c(Br)c2Br)c(Br)c1Br : call = ?
Response line: 1

Prompt line: Entry CN1CCCC1=O : call = ?
Response line: 1
